B1: WW domain-containing transcription regulator protein 1, residues 116 to 162; numbered along this chain, Q9GZV5 (parent)
chain: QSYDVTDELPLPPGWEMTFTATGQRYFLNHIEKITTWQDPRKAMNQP

Variants of: B1
measurement.notes: abundance fitness (aPCA) (normalised: wild type 0, dead -1); higher = more abundant; growth selection in yeast, the domain comes from the species named
applied.conditions: Homo sapiens
Quick reference: abundance fitness of the listed items.

> print(dat)
   sequence.change       readout.kind  test.value
1             F27R  abundance fitness      -0.761

q: For the variant P13L , report abundance fitness.
a: -0.124

q: For the variant N29M , report abundance fitness.
a: -1.02

q: For the variant H30R , report abundance fitness.
a: -0.075

q: For the variant D4G , report abundance fitness.
a: -0.198

q: For the variant M17H , report abundance fitness.
a: -0.44
